test system: HT29 colon; assay: NCI tumour cell line growth inhibition, 48 h
# TGI per entry

NCCOCCOCCNc1nc(Cc2ccccc2)nc(NCCCN2CCCC2=O)n1 = > 100 µM
NNC(=O)/C(=C/c1ccc(Cl)cc1Cl)NC(=O)c1ccccc1 = > 100 µM
Cc1ccc(N=Nc2c(O)c(C(=O)O)cc3ccccc23)cc1C = > 100 µM
O=c1cc(-c2ccccc2)[nH]c2ccccc12 = > 34.8 µM
CC(=O)OCC1OC(OC2C(CSC3OC(COC(C)=O)C(OC(C)=O)C(OC(C)=O)C3OC(C)=O)OC(OC(C)=O)C(OC(C)=O)C2OC(C)=O)C(OC(C)=O)C(OC(C)=O)C1OC(C)=O (centres undefined) = > 100 µM
COc1cc(/C=C/C(=O)c2ccc(NS(=O)(=O)c3cc([N+](=O)[O-])ccc3C)cc2)cc(OC)c1OC = 14.4 µM

Q: Check the records and state TGI for CCCNC1=C(C(=O)OCC)C(=O)CO1
Result: > 100 µM

Q: Identify TGI associated with the compound C1C[OH+]CC[OH+]CCNCC[OH+]CC[OH+]CCN1.N.[Cl-].[Pt+4]
Result: > 100 µM

Q: For the compound O=C(/C=C/c1ccccc1)CCN1CCN(CCC(=O)/C=C/c2ccccc2)CC1 , give its measured TGI value.
Result: 30.4 µM

Origin of values: PubChem BioAssay (NCI)
